The measured values listed here are drawn from ChEMBL document CHEMBL3872283.

assay: MRT in mouse at 2 mg/kg, iv or 10 mg/kg, po by LC/MS/MS analysis; format: ADME, organism-based; settings: in vivo
RESULT_TYPE: MRT (h)
Only the number, expressed in h, is required.

Qu. Please give measured MRT of the following entry: `O=C(O)CC1CCC2(CC1)CCN(c1cc(OC(F)(F)F)ccc1Cl)CC2`
Ans. 26.5

---

biological target: Free fatty acid receptor 4 (Homo sapiens); assay: Agonist activity at human GPR120 short isoform expressed in CHOK1 cells assessed as induction of IP1 accumulation after 60 mins by HTRF assay; assay type: functional, cell-based, CHO-K1
Sequence (Q5NUL3 whole entry, canonical isoform): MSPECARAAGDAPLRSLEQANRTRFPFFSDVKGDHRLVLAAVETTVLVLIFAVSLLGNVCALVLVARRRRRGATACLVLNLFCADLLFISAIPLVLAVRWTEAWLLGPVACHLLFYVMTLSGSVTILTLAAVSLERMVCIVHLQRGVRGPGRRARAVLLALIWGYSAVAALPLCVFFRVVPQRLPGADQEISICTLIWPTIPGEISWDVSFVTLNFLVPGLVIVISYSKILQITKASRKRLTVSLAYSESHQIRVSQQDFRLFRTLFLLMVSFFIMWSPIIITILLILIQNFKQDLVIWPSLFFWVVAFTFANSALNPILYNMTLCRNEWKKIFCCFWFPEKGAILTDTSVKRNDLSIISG
In this section we review reported log10 of EC50 values for a set of compounds.
Could you please treat all values as log10 of EC50 in µM?

Qu. Please give the documented log10 of EC50 of CC1CC2(CCC1CC(=O)O)CCN(c1cc(OC(F)(F)F)ccc1Cl)CC2 (stereo not given)
Ans. 0.61

Qu. Name the recorded log10 of EC50 of the item `OCCC1CCC2(CC1)CCN(c1cc(OC(F)(F)F)ccc1Cl)CC2` in your answer.
Ans. 0.63

Qu. Quickly give me recorded log10 of EC50 for CC(C(=O)O)C1CCC2(CC1)CCN(c1cc(OC(F)(F)F)ccc1Cl)CC2 (stereo not given)
Ans. 0.54

Qu. Provide one value: measured log10 of EC50 of CC1CC(CC(=O)O)CCC12CCN(c1cc(OC(F)(F)F)ccc1Cl)CC2 (stereo not given)
Ans. -0.36

Qu. Please report the measured log10 of EC50 for O=C(O)CC1CCC2(CCN(c3cc(OC(F)(F)F)ccc3Cl)CC2)OC1 (stereo not given)
Ans. 0.76
